Would you kindly list normalised response for each of these molecules?
# Test system: BT-549
# Method summary: normalised response (% of control), CellTox Green; higher = less cell death (100 = DMSO, 0 = benzethonium chloride kill control)
# Assay context: incubation time: 72 h
Numbers only, in %.

Worked examples follow.
{"columns": ["Molecule", "Observed property", "Numeric result"],
 "data": [
  ["CS(=O)(=O)c1ccc(C(=O)Nc2ccc(Cl)c(-c3ccccn3)c2)c(Cl)c1 [Vismodegib] (1000 nM)", "normalised response", 99.3],
  ["COc1cccc2cc(-c3nc([C@H]4CC[C@H](C(=O)O)CC4)n4ncnc(N)c34)[nH]c12 [OSI-027] (1000 nM)", "normalised response", 102],
  ["Clc1ccc(C(c2ccccc2Cl)C(Cl)Cl)cc1 (centres undefined) [Mitotane] (10000 nM)", "normalised response", 93.4]
]}

Please find the next molecule below.
Lab note: need normalised response with BT-549 for entry N#CC[C@H](C1CCCC1)n1cc(-c2ncnc3[nH]ccc23)cn1 [Ruxolitinib] (1000 nM) , please look it up.
127
